TARGET OF ASSAY: Neuromedin-U receptor 1 (Homo sapiens) (UniProt Q9HB89)
Sequence (Q9HB89 whole entry): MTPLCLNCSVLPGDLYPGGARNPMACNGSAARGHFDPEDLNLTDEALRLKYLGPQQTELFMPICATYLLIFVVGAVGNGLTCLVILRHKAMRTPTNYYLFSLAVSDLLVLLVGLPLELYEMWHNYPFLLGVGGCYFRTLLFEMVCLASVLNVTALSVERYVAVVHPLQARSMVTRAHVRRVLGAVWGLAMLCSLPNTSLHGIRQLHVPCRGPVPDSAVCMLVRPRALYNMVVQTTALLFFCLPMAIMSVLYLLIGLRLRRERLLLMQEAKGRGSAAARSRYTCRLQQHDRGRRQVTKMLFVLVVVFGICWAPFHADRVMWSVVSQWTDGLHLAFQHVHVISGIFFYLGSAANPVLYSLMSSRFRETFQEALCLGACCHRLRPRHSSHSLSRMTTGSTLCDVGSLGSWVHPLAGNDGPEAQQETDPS
ASSAY NAME: Agonist activity at human NMUR1 expressed in CHO cells at 10 nM by Fluo-4-AM dye based calcium mobilization assay
Assay type: functional, cell-based
Activity calls are given as the source filed them. No cut-off for these calls is given here. Peptide text beside a SMILES is read from it. * marks the point of attachment. Propanoyl(3-cHex) = O=C(CCC1CCCCC1)*
RESULT TYPE: Activity

{"MOLECULE": "COC[C@H](NC(=O)[C@H](CC(C)C)NC(=O)[C@H](CC(C)C)NC(=O)CCC1CCCCC1)C(=O)N1CCC[C@H]1C(=O)N[C@@H](CCCNC(=N)N)C(=O)N[C@@H](CC(N)=O)C(N)=O ({Propanoyl(3-cHex)}-LLS(Me)PRN-NH2)", "ASSAY RESULT": "inactive"}
{"MOLECULE": "CC(C)C[C@H](NC(=O)CCC1CCCCC1)C(=O)N[C@@H](CC(C)C)C(=O)N[C@H](C(=O)N1CCC[C@H]1C(=O)N[C@@H](CCCNC(=N)N)C(=O)N[C@@H](CC(N)=O)C(N)=O)[C@@H](C)O", "ASSAY RESULT": "inactive"}
